Target: hCA XII (Homo sapiens, UniProt O43570)
Construct: gene CA12; trans-membrane isoform
Sequence (O43570 30-289 limits assumed): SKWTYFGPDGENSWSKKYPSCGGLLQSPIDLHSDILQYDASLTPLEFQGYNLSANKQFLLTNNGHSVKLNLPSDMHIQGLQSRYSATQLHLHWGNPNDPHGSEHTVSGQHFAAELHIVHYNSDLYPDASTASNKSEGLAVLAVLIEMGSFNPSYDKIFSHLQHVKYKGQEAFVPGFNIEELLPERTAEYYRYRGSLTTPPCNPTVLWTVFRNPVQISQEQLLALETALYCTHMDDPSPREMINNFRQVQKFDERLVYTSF
Experiment: stopped-flow CO2 hydrase assay
Assay type: biochemical
Conditions: read-out: KI (μM)^a / hCA I
Give measured Ki for each item. Keep answers brief.

Examples from the recorded data:
| compound | system-tested | result |
| --- | --- | --- |
| O=C(O)CNC(=O)c1ccc(NC=CC(=O)c2ccccc2)cc1 [12a] | hCA XII (Homo sapiens, UniProt O43570) | > 100 µM |
| O=C(O)CNC(=O)c1ccc(N/C=C/C(=O)c2ccc3ccccc3c2)cc1 [12c] | hCA XII (Homo sapiens, UniProt O43570) | > 100 µM |

// moving on: another record for Ki
Query block: Value lookup for Ki; key = O=C(O)CNC(=O)c1ccc(N/C=C/C(=O)c2ccc(Br)cc2)cc1 [12b]
Result block: > 100 µM
